Reported kon values for the following binders.
- assay_system: T1, Histidine-tagged human CD40 protein (hCD40-His) (human, UniProt P25942 21-193)
- T1 construct: not shown: histidine tag
- T1 sequence (P25942 21-193 limits assumed): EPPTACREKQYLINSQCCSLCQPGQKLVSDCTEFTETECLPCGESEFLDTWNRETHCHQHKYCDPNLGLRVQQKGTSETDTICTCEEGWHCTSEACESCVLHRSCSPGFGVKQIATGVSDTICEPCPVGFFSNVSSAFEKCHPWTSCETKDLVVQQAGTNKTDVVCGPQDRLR
- experiment_notes: SPR, Biacore T200; antibody on Protein A chip, hCD40-His injected; 1:1 fit
All answers are understood in M⁻¹ s⁻¹, so give the number only.

Study these solved cases before continuing.
binder	kon / M⁻¹ s⁻¹
6A7-H4K1-IgG4 (antibody, V domains shown, Humanized) VH: QVQLVQSGAEVKKPGASVKLSCKASGYTFISYYIYWVKQAPGQGLEWIGGINPRNGGTNFNEKFKSRATLTVDTSISTAYMELSRLRSEDTAVYYCTRHGNGVYWGQGTTLTVSS VL: DVVMTQSPLSLPVTLGQPASISCRSSQSLLHSNGNTYLHWFQQRPGQSPRHLIYQVSNRFSGVPDRFSGSGSGTDFTLKISRVEAEDVGVYYCSQTTHVPWTFGGGTKVEIK	23900
6A7-H4K3-IgG4 (antibody, V domains shown, Humanized) VH: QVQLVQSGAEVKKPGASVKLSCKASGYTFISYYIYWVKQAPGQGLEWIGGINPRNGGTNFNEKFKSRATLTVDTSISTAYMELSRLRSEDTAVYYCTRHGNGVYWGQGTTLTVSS VL: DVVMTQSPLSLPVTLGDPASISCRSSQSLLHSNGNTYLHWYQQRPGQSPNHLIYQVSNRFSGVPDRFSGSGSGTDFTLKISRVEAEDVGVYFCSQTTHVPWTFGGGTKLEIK	107000

# next binder below
### Prompt Could you share which kon value was measured for 7F10-H3K1-IgG4 (antibody, V domains shown, Humanized) VH: EVKLVESGGGLVQPGGSLRLSCATSGFTFSDYYMYWVRQAPEKRLEWVAYISYGGDSTFYPDTVRGRFTISRDNAKNALYLQMSRLKAEDTAVYYCARPAPSAHSYYLDYWGQGTTLTVSS VL: DIQMTQSPSSLSASVGDRVTITCRASQDISNYLNWYQQKPGGAVKLLIYYTSRLHSGLPSRFSGSGSGTDFTFTISSLQPEDIATYYCQQGKTLPFTFASGTKLEIK ?
### Response 132000
